Test system: PPARg DBDmut:RXRa IVT, anti-PPARg (DBD mutation: PPARg1 K132A/R137A, NR concentration 270 nM, RXRa partner concentration 90 nM)
assay_explanation: PBM binding z-score (relative to random genomic background probes); higher = stronger binding; sequences stand for … in GC…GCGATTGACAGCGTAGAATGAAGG
Label true (1) for high-side PBM binding z-score (at or above 0.9) and false (0) for low-side PBM binding z-score (below it).

{"columns": ["input_sequence", "discrete_label"],
 "data": [
  ["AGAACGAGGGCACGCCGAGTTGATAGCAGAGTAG", "false (0)"],
  ["CCAGACAGGTGAAAGGTAACTCAATCTGGTACGC", "false (0)"],
  ["ATCTCTAGGTAACCAAGTTCAGTGATTGCCGAAC", "true (1)"],
  ["AGTCACAGTTCACTAGGTAACGTAAGATTCAGCT", "true (1)"],
  ["GCTCGTAGATCAAGGTTAAGAAAGACTAAGCTAA", "false (0)"],
  ["CCTCCTGGGCCAAGGTCATTGATCAGTCAAAGCA", "false (0)"],
  ["CGAACTAGGTCATTGACAGGACAGTAAATAGTAA", "true (1)"],
  ["TCTTGTAGATCAGCAGGTTAAGATAGCTGGCCAA", "false (0)"],
  ["TCTTGTAGATCAACAGTAGGTTAAGAAAGATCGA", "true (1)"],
  ["CTTATTAGTTGACCATAAGGGCAACCGAAGCTCG", "true (1)"]
]}

Check the entry "CCAGACAGGTGAAAGGTTACTCAGTCTGGTACGC" : does PBM binding z-score equal or exceed 0.9?
false (0)

Check "ATCGACAGGTCGTGAGGTGAGTATACAGAAAGGC" too.
false (0)
